Documented Growth Rate across a set of compounds
test system: Fibroblast; experiment: Incucyte cell viability with human fibroblast; format: toxicity, cell-based; details: 12 h, 10 µM, compound concentration 10 uM, replicate number 2, timepoint 12 hours; further: unitless GR value; below 1 slowed growth and below 0 cell loss
// print number alone

// below: answered compounds
O=C1NCc2ccc3c(-c4cccc(Cl)c4)c[nH]c3c21; -0.4
Cl.NCCc1ccc(O)c(O)c1 [DOPAMINE HYDROCHLORIDE]; 0.67
Cc1cc(CN)cc(C)c1-c1ncn(C)c1-c1ccnc2cc(F)ccc12; 0.83
COc1c(Nc2ccc(S(C)(=O)=O)nc2C)ncnc1OC1CCN(C(=O)OC(C)C)CC1 [ADP-597]; 0.7

[Q] Request - read-out Growth Rate | tested on Fibroblast | compound CC1(C)[C@H]2C[C@H](C/C=C\CCCC(=O)O)[C@@H](NC(=O)c3csc4ccc(O)cc34)[C@@H]1C2
[A] 0.75
